Reported melting point values follow for various molecules

Sample answers from the record:
1. CC(=O)Nc1ccc(NC(=O)c2cc3ccc(C(F)(F)F)cc3n2Cc2cccc(F)c2)cn1 :: 293 to 295 °C
2. Cc1cc(N(C)C)ncc1NC(=O)c1cc2cc(F)ccc2n1Cc1cccc(F)c1 :: 183 to 185 °C
3. Cc1cc(NC(=O)c2cc3cc(F)ccc3n2Cc2ccncc2)cnc1N(C)C [Compound 19] :: 164 to 165 °C
4. CNc1ccc(NC(=O)c2cc3cc(F)ccc3n2Cc2cccc(F)c2)c(C)n1 :: 229 to 230 °C
5. Cc1cc(N(C)C)ncc1NC(=O)c1cc2cc(F)ccc2n1Cc1ccncc1 [Compound 17] :: 217 to 219 °C

The recorded melting point for entry CN(C)C1=CNN(NC(=O)c2cc3ccc(C(F)(F)F)cc3n2Cc2cccc(F)c2)C=C1 equals 255 to 267 °C

The recorded melting point for entry CN(C)c1ccc(NC(=O)c2cc3cc(F)ccc3n2Cc2cccc(F)c2)cn1.Cl equals 232 to 234 °C

----------
Structures can show the parent of a compound that is named as a salt.
Measured Metric: melting point

1) CN(C)C1=CNN(NC(=O)c2cc3cc(C(F)(F)F)ccc3n2Cc2cccc(F)c2)C=C1 :: 138 to 139 °C

The recorded melting point for entry CNc1ccc(NC(=O)c2cc3cc(F)ccc3n2Cc2cccc(F)c2)cn1 equals 225 to 227 °C

The recorded melting point for entry CN(C)C1=CNN(NC(=O)c2cc3cc(F)ccc3n2Cc2cccc(F)c2)C=C1 (as salt: hydrochloride) equals 239 to 241 °C

The recorded melting point for entry CC(=O)Nc1ccc(NC(=O)c2cc3cc(F)ccc3n2Cc2cccc(F)c2)cn1 equals 252 to 254 °C

The recorded melting point for entry CNc1cc(C)c(NC(=O)c2cc3cc(F)ccc3n2Cc2ccncc2)cn1 equals 218 to 220 °C

The recorded melting point for entry CN(C)c1ncc(NC(=O)c2cc3cc(F)ccc3n2Cc2cccc(F)c2)cc1C(F)(F)F equals 142 to 143 °C

The recorded melting point for entry Cc1cc(NC(=O)c2cc3cc(F)ccc3n2Cc2cccc(F)c2)cnc1N(C)C equals 145 to 146 °C

The recorded melting point for entry CNc1ccc(NC(=O)c2cc3cc(F)ccc3n2Cc2ccncc2)cn1 equals 220 to 222 °C

The recorded melting point for entry CN(C)C1=CNN(NC(=O)c2cc3cc(C(F)(F)F)ccc3n2Cc2ccncc2)C=C1.Cl equals 268 to 272 °C

The recorded melting point for entry CN(C)c1ncc(NC(=O)c2cc3cc(F)ccc3n2Cc2cccc(F)c2)cc1F equals 158 to 159 °C

The recorded melting point for entry CNc1cc(C)c(NC(=O)c2cc3cc(F)ccc3n2Cc2cccc(F)c2)cn1 equals 215 to 217 °C
